Assay protocol: Cytotoxicity against human HepG2(2.2.15) cells after 24 hours following 9 days of treatment by neutral red dye uptake assay
Format: cell-based
Condition notes: read-out: TC50
Peptide text beside a SMILES is read from it. * marks the point of attachment. 4Abz = Nc1ccc(C(=O)O)cc1; ClAc = O=C(CCl)*
Assay readout: CC50 at 216 h (µM)

> print(dat)
                                   compound  assay.readout  observed.measurement
1  COC(=O)[C@H](Cc1ccccc1)NC(=O)[C@H](Cc1ccc(O)cc1)NC(=O)c1ccncc1  CC50 at 216 h                   219
2  COC(=O)[C@H](Cc1ccc([N+](=O)[O-])cc1)NC(=O)[C@H](Cc1ccccc1)NC(=O)c1ccncc1  CC50 at 216 h                   812
3  COC(=O)[C@H](Cc1ccccc1)NC(=O)[C@H](Cc1ccccc1)NC(=O)c1ccc(NC(=O)CN(C)C)cc1  CC50 at 216 h                   111
4  CN(C)Cc1ccc(C(=O)N[C@@H](Cc2ccccc2)C(=O)N[C@H](CO)Cc2ccccc2)cc1  CC50 at 216 h                   188
5  O=C(N[C@@H](Cc1ccccc1)C(=O)N[C@H](CO)Cc1ccccc1)c1ccc(CN2CCCC2)cc1  CC50 at 216 h                   128
6  CCCCOc1ccc(C[C@H](NC(=O)[C@H](Cc2ccccc2)NC(=O)c2ccccc2)C(=O)OC)cc1  CC50 at 216 h                  1150
7  COC(=O)[C@H](Cc1ccccc1)NC(=O)[C@H](Cc1ccccc1)NC(=O)c1ccc(OCCN(C)C)cc1  CC50 at 216 h                   497
8  COC(=O)[C@H](Cc1ccccc1)NC(=O)[C@H](Cc1ccccc1)NC(=O)c1ccc(NC(=O)CCl)cc1 ({ClAc-4Abz}-Phe-Phe-OMe)  CC50 at 216 h                   223

====

System: Hepatitis B virus
Assay protocol: Antiviral activity against HBV infected in human HepG2(2.2.15) cells assessed as inhibition of viral DNA replication by measuring HBsAg and HBeAg production after 9 days by EIA
Type: functional, organism-based
Condition notes: HepG2 2.2.15, 216 h
Square brackets hold non-standard residues; d marks the D form. Peptide text beside a SMILES is read from it. * marks the point of attachment. Phe(4-NO2) = N[C@@H](Cc1ccc([N+](=O)[O-])cc1)C(=O)O; 4Abz = Nc1ccc(C(=O)O)cc1; Propionyl = CCC(=O)*
# IC50 annotations

Compound	Study system	IC50 [µM]
CCC(=O)Nc1ccc(C(=O)N[C@@H](Cc2ccccc2)C(=O)N[C@@H](Cc2ccc([N+](=O)[O-])cc2)C(=O)OC)cc1 ({Propionyl-4Abz}-Phe-[Phe(4-NO2)]-OMe)	Hepatitis B virus	4.37
COC(=O)[C@H](Cc1ccccc1)NC(=O)[C@H](Cc1ccccc1)NC(=O)c1ccc(OCCN(C)C)cc1	Hepatitis B virus	105
O=C(N[C@@H](Cc1ccccc1)C(=O)N[C@H](CO)Cc1ccccc1)c1ccncc1	Hepatitis B virus	28.9
O=C(N[C@@H](Cc1ccccc1)C(=O)N[C@H](CO)Cc1ccccc1)c1ccc(CN2CCOCC2)cc1	Hepatitis B virus	13.9
